- study.system: human skeletal muscle sodium channels (Homo sapiens)
- Construct: expressed in transfected cells
- protocol: Whole-cell voltage-clamp of heterologously expressed human skeletal muscle sodium channels in HEK 293 cells
- Format: cell-based
- recorded.conditions: holding potential −150 mV, 10 ms pulse to 0 mV; read-out: IC50 for block of inward sodium current at a holding potential of −150 mV
test.readout: pIC50
Answer as the number alone; pIC50 is minus log10 of concentration in mol/L.

Record Cc1cc(O)cc(C)c1Cl [3,5-dimethyl-4-chlorophenol] has human skeletal muscle sodium channels (Homo sapiens) pIC50 equal to 3.79

----------
- study.system: human skeletal muscle sodium channels (Homo sapiens, UniProt P35499)
- Construct: expressed in transfected cells
- Sequence (P35499 whole entry): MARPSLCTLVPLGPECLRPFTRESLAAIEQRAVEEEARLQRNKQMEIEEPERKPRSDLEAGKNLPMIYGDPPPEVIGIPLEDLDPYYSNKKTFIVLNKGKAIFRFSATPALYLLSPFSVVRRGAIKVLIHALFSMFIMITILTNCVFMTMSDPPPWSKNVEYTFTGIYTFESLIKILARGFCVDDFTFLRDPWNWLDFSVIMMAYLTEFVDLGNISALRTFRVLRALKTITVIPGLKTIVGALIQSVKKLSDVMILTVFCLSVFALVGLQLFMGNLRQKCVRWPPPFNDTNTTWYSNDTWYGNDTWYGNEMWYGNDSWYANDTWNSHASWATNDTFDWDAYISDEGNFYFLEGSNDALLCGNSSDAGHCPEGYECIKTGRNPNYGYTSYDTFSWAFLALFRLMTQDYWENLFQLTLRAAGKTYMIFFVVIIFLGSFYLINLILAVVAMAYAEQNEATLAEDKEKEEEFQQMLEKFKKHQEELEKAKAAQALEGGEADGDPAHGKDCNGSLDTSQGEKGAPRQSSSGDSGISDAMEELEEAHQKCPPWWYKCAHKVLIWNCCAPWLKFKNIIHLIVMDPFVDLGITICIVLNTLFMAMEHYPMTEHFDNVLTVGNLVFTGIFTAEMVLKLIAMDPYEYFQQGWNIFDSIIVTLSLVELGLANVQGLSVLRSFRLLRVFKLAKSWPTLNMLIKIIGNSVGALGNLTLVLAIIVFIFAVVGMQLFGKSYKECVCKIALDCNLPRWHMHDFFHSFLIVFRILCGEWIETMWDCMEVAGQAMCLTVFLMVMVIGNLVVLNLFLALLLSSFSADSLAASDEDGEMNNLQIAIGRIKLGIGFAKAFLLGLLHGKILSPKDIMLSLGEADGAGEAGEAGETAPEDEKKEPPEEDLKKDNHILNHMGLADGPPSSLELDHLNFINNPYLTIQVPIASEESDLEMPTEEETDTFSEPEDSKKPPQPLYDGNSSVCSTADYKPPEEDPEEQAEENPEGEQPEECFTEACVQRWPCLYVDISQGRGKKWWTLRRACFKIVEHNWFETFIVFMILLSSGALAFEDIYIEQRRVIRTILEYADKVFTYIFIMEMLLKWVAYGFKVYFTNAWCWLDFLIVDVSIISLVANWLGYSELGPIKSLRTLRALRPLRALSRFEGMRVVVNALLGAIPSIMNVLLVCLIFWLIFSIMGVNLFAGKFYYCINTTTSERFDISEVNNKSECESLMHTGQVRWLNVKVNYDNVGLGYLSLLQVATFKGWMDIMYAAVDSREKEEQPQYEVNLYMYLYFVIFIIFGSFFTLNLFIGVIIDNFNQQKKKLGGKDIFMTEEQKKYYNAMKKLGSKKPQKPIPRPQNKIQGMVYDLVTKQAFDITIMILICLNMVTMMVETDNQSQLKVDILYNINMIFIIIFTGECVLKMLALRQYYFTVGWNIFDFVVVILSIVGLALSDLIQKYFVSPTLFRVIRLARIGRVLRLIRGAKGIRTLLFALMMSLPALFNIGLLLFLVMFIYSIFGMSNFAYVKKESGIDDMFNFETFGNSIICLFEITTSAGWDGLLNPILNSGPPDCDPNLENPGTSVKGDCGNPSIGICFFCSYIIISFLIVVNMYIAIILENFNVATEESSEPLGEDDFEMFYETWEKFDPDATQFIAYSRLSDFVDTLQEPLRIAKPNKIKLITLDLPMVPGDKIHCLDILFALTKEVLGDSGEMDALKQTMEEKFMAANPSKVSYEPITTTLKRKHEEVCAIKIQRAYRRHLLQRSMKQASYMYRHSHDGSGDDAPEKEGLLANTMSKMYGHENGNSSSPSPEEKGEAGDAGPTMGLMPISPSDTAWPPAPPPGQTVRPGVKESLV
- protocol: Whole-cell voltage-clamp of heterologously expressed human skeletal muscle sodium channels in HEK 293 cells
- Assay type: cell-based
- recorded.conditions: holding potential −100 mV, test pulse to 0 mV; read-out: IC50 for block of sodium currents on depolarization from -100 mV to 0 mV
test.readout: pIC50
Answer as the number alone; pIC50 is minus log10 of concentration in mol/L.

The recorded pIC50 for entry Cc1cc(O)cc(C)c1Cl [3,5-dimethyl-4-chlorophenol] equals 3.82

----------
- study.system: human skeletal muscle sodium channels (Homo sapiens, UniProt P35499)
- Construct: expressed in transfected cells
- protocol: Whole-cell voltage-clamp of heterologously expressed human skeletal muscle sodium channels in HEK 293 cells
- Type: cell-based
- recorded.conditions: IC50 for block of inward sodium current at a holding potential of −150 mV, holding potential −150 mV, 10 ms pulse to 0 mV
Attribute: pIC50
Answer as the number alone; pIC50 is minus log10 of concentration in mol/L.

molecule: Cc1cc(Cl)ccc1O [4-chloro-2-methylphenol]
pIC50: 3.50
--
molecule: Oc1ccc(Cl)cc1 [4-chlorophenol]
pIC50: 3.12

From here, focus on the item given below.
The recorded pIC50 for entry Cc1cccc(O)c1 [3-methylphenol] equals 2.62
